From: ChEMBL document CHEMBL1201862

Tested system: Cytochrome P450 2C19 (Homo sapiens, UniProt P33261)
Sequence (P33261 whole entry): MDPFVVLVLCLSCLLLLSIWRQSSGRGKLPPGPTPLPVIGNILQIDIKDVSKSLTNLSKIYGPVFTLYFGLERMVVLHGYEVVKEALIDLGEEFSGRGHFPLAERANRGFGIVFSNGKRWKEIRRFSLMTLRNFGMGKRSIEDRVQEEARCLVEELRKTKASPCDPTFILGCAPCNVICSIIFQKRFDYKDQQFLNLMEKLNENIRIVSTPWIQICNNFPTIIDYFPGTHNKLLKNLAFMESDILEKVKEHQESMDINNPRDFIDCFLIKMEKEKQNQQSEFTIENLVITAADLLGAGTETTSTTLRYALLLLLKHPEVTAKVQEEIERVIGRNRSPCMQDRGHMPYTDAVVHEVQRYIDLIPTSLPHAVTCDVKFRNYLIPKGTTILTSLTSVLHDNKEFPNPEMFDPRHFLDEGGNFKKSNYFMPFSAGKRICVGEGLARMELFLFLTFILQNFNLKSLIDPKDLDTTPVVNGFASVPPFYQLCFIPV
Assay explanation: Cytochrome panel assay with activity outcomes. Panel member name: p450-cyp2c19 Compounds with AC50 equal or less than 10 uM are considered active
Format: functional
Study conditions: read-out: AC50
Measured AC50, listed per entry.

CC(C)Oc1ccc(CSC(=N)N)cc1	5.62 µM (inconclusive)

Query string: Entry CC(=O)Nc1ccc(-c2nnc(SCC(=O)c3ccc4c(c3)Cc3ccccc3-4)n2C)cc1 : reported AC50 = ?
Result string: 6.31 µM (inconclusive)

Query string: Entry Cc1cccc(NC(=O)c2cc(=O)c3ccccc3o2)n1 : reported AC50 = ?
Result string: 14.1 µM (inconclusive)

Query string: Entry CCCS(=O)(=O)N1CCCC(C(=O)N2CCN(c3ccccc3)CC2)C1 (stereo unspecified) : reported AC50 = ?
Result string: 6.31 µM (inconclusive)

Query string: Entry CCCCC(=O)Nc1nnc(SCC(=O)NC2CCCC2)s1 : reported AC50 = ?
Result string: 35.5 µM (inconclusive)

###

Tested system: Ubiquitin-conjugating enzyme E2 N (Homo sapiens);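 note: Dose-response confirmation in a TR-FRET assay detecting UBC13-driven polyubiquitin chain formation, inhibition measured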
Sequence (P61088 whole entry): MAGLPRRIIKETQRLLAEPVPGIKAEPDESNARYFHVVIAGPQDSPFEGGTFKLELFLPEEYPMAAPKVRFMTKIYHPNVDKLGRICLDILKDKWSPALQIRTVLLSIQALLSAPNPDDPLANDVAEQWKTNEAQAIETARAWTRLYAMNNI
Assay type: functional
Active and inactive are the calls of the source.
Property label: IC50

Worked set:
c1ccc2c(-c3ccc(OCCN4CCCCC4)cc3)c(-c3ccsc3)sc2c1	> 20 µM (inactive)
COc1ccccc1NC(=O)c1c(/N=C/c2cccc([N+](=O)[O-])c2)cnn1C	> 20 µM (inactive)

Query string: Entry Cc1ccc(NC(=O)CSc2nc3ccccc3c(=O)n2CCCC(=O)NCCCN2CCOCC2)cc1C : reported IC50 = ?
Result string: > 20 µM (inactive)

Query string: Entry OC(CNCC1CCCO1)Cn1c2ccc(Cl)cc2c2cc(Cl)ccc21 (stereo not drawn) : reported IC50 = ?
Result string: > 20 µM (inactive)

Query string: Entry Cc1cccc(N(C(=O)c2snc(C(N)=O)c2N)C(C(=O)NC2CCCC2)c2ccco2)c1 (stereo not drawn) : reported IC50 = ?
Result string: > 20 µM (inactive)

Query string: Entry CCN1CCN(Cc2ccc(NC(=O)c3cc(NC(=O)c4cc(-c5ccc(OC)cc5)n[nH]4)cc(OC)c3)cc2C(F)(F)F)CC1 : reported IC50 = ?
Result string: > 20 µM (inactive)

Query string: Entry CCC(=O)NC(c1cc(Cl)c2ccccc2c1O)C(C)C (stereo not drawn) : reported IC50 = ?
Result string: > 20 µM (inactive)

Query string: Entry CCCCN(CC)CCNC(=O)c1cc2c(=O)n(CC)c3ccccc3c2s1 : reported IC50 = ?
Result string: 18.1 µM (active)

###

Measured IC50, listed per entry.
Tested system: Sentrin-specific protease 7 (Homo sapiens, UniProt Q9BQF6);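 note: Luminescence-based dose-response confirmation of ultra-high-throughput screening hits, measuring inhibition of SENP7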
Sequence (Q9BQF6 whole entry): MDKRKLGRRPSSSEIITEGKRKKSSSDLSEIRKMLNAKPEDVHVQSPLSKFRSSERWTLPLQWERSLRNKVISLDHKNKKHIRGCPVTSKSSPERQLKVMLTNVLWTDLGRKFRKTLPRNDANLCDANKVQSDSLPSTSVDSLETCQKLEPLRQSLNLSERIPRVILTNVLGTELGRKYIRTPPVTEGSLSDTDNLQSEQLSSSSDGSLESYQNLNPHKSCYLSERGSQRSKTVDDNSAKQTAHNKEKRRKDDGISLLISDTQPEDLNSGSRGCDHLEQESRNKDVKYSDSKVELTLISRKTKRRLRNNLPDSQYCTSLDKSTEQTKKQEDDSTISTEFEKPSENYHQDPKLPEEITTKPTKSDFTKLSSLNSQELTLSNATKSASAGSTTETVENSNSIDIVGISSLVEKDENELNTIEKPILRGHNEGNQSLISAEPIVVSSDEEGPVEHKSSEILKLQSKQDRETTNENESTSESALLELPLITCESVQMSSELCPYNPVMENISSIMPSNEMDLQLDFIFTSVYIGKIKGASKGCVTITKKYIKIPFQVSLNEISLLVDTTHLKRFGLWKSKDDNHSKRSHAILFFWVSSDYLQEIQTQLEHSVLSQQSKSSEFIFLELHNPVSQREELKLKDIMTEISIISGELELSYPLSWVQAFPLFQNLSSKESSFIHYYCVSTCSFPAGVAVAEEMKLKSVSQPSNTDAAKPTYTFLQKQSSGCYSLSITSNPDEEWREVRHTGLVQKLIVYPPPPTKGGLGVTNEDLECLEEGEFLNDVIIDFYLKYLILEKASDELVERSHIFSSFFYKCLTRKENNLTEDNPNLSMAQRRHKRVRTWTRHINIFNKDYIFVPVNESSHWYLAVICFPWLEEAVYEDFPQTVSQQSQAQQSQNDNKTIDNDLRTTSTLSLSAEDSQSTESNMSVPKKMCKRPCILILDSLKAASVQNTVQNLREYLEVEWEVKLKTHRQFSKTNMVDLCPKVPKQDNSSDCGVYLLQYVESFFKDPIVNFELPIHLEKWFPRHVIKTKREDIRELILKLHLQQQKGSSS
Format: functional
Calls of active or inactive are those of the source.

O=C(O)c1ccc(NC2=C/C(=N/S(=O)(=O)c3ccccc3)c3ccccc3C2=O)cc1	2.06 µM (active)

Query string: Entry Oc1nc(SCc2ccc(Cl)cc2)nc2ccsc12 : reported IC50 = ?
Result string: 8.53 µM (active)

Query string: Entry Cc1ccc(-n2cc3ccc([N+](=O)[O-])cc3n2)cc1 : reported IC50 = ?
Result string: 12.5 µM (active)

Query string: Entry Oc1ccc(Cl)cc1N=Nc1ccccc1 : reported IC50 = ?
Result string: 7.8 µM (active)

Query string: Entry COc1ccc(OC)c(Nc2cc3ccccc3c(O)n2)c1 : reported IC50 = ?
Result string: 2.19 µM (active)

###

Measured EC50, listed per entry.
Assay explanation: Luminescence Cell-Based Dose Response HTS to Identify Inhibitors of 5'UTR Stem-Loop Driven Prion Protein mRNA Translation in H4 Neuroglioblastoma Cells. [Related pubchem assays: 1827 (Project Summary), 1813 (Primary HTS)]
Assay type: functional
The source made the active and inactive calls.

Worked set:
COc1cc(/C=C(/C#N)c2nc3ccccc3[nH]2)ccc1OCC(=O)Nc1ccccc1C(C)C	3.34 µM (active)
COc1cc(CNC(C)c2ccccc2)cc(Br)c1OCc1ccc(F)cc1 (stereo not drawn)	> 120 µM (not active)
O=C(OCC1OC(n2ncc(=O)[nH]c2=O)C(OC(=O)c2ccccc2)C1OC(=O)c1ccccc1)c1ccccc1 (stereo not drawn)	17.7 µM (active)
Cn1ccnc1SCc1cn2cc(Br)ccc2n1	7.92 µM (active)
CCOC(=O)c1sc2nc(CC(=O)OC)nc(N3CCN(c4ccc(OC)cc4)CC3)c2c1C	> 120 µM (not active)

Query string: Entry CC1CCc2cccc3c2N1c1cc(C#N)c(C#N)cc1O3 (stereo not drawn) : reported EC50 = ?
Result string: 88.7 µM (active)

Query string: Entry Nc1nc(NCc2ccco2)nc(Nc2ccc(F)cc2)c1[N+](=O)[O-] : reported EC50 = ?
Result string: > 120 µM (not active)

###

Tested system: Sentrin-specific protease 6 (Homo sapiens);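 note: Luminescence-based dose-response confirmatory assay of SENP6 inhibition, following up an ultra-high-throughput screen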
Sequence (Q9GZR1 whole entry): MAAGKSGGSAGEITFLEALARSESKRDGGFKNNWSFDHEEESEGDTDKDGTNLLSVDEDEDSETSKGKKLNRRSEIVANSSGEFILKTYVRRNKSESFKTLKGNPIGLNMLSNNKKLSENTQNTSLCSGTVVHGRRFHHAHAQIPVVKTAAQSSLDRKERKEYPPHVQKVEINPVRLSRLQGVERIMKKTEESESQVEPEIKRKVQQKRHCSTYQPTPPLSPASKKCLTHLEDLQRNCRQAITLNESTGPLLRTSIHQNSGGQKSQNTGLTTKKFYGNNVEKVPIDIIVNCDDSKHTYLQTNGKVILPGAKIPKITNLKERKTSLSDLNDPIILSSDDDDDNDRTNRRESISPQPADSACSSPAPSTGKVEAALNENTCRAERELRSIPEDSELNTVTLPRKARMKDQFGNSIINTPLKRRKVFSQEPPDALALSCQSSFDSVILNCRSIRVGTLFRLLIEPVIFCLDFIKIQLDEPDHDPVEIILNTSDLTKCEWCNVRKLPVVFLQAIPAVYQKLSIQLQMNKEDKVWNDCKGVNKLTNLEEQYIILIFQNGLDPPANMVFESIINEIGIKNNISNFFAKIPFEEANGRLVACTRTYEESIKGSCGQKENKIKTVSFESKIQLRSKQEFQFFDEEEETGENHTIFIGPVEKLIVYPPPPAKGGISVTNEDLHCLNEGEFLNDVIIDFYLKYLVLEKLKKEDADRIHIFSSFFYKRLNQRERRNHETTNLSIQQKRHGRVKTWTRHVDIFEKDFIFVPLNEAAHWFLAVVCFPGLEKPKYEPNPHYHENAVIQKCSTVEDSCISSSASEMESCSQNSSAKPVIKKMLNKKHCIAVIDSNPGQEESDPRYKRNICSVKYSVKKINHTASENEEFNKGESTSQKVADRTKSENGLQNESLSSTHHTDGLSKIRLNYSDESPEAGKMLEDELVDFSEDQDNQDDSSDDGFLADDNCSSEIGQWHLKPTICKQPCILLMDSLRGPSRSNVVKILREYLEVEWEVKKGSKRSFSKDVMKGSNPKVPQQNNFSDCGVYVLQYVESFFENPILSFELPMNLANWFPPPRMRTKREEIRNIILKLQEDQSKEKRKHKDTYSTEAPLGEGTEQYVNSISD
Type: functional
Activity calls are given as the source filed them.
Measured IC50, listed per entry.

Worked set:
Oc1ccc(Cl)cc1N=Nc1ccccc1	35.4 µM (active)
Cc1ccc(-n2cc3ccc([N+](=O)[O-])cc3n2)cc1	17.2 µM (active)
O=C(O)c1ccc(NC2=C/C(=N/S(=O)(=O)c3ccccc3)c3ccccc3C2=O)cc1	0.743 µM (active)
COc1ccc(OC)c(Nc2cc3ccccc3c(O)n2)c1	< 1.55 µM (active)

Now look at this one.
Query string: Entry Oc1nc(SCc2ccc(Cl)cc2)nc2ccsc12 : reported IC50 = ?
Result string: 6.14 µM (active)

###

Tested system: UniProt:Q9XUB2
Sequence (Q9XUB2 whole entry): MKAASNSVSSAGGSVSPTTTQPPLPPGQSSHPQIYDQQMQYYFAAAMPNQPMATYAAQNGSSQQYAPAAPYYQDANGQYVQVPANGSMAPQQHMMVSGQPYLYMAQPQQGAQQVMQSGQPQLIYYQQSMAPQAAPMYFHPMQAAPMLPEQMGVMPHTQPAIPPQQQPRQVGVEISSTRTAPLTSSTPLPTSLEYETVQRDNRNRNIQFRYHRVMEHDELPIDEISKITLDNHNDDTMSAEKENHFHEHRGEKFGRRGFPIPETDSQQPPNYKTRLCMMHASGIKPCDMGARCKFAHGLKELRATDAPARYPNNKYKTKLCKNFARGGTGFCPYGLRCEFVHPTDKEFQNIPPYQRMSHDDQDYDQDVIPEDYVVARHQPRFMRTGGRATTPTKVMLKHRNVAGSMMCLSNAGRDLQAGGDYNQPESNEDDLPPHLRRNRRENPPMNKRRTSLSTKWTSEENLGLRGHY
Assay explanation: potency of MEX-5 RNA-binding blockers – biochemical, C. elegans, fluorescence polarization, dose response (AID 1960)
Activity calls are given as the source filed them.
Property label: EC50

Worked set:
CCOC(=O)C1=C(Nc2ccccc2)S/C(=C\c2cn(CC(=O)N3CCCC3)c3ccccc23)C1=O	26.2 µM (active)
COc1ccc(N2C(=O)/C(=C/c3ccc(C)o3)C(=O)NC2=S)cc1	> 300 µM (not active)
COc1ccccc1N1CC(C(=O)Nc2nnc(SCC(=O)NC(C)C)s2)CC1=O (centres undefined)	> 300 µM (not active)
O=C(CCl)NCCN1C(=O)S/C(=C\c2cccnc2)C1=O	> 300 µM (not active)
O=C1CCC/C(=N/NC(=O)c2sc3ccccc3c2Cl)C1	20.5 µM (active)
COc1cccc(N2C(=O)/C(=C/c3ccc(C)o3)C(=O)NC2=S)c1	44.5 µM (active)

Query string: Find EC50 (UniProt:Q9XUB2) for the entry CN1C(=O)C(=Cc2c[nH]c3ccc(Br)cc23)C(=O)N(C)C1=O
Result string: > 300 µM (not active)

Query string: Find EC50 (UniProt:Q9XUB2) for the entry O=C(N/N=C/c1cc(Cl)cc([N+](=O)[O-])c1O)C(O)(c1ccccc1)c1ccccc1
Result string: 40.2 µM (active)

Query string: Find EC50 (UniProt:Q9XUB2) for the entry COc1ccc2nc3ccccc3nc2c1NC(=O)c1ccc(Br)cc1
Result string: 6.66 µM (inconclusive)

###

Measured EC50, listed per entry.
Tested system: Protein RecA (Mycobacterium tuberculosis, UniProt P9WHJ3)
Assay explanation: Fluorescence Cell-Free Homogeneous Dose Retest to Identify Inhibitors of RecA-Intein Splicing Activity. [Related pubchem assays (depositor defined):AID2097, AID2223, AID489010, AID492950]
Assay type: functional
The source made the active and inactive calls.

CCCc1n[nH]c2c1C(c1ccccc1OCC)C(C#N)=C(N)O2 (stereo unspecified)	9.01 µM (active)
O=C(CCCN1C(=O)/C(=C\c2cccs2)SC1=S)Nc1ccc(O)cc1C(=O)O	12.7 µM (active)
O=C(Nc1ccc(Cl)cc1)C(Cl)C(=O)c1ccccc1 (stereo unspecified)	30.3 µM (active)
CCOC(=O)C(C#N)C(c1cccnc1)c1c(C)[nH][nH]c1=O (stereo unspecified)	1.81 µM (active)

Query string: Find EC50 (Protein RecA (Mycobacterium tuberculosis, UniProt P9WHJ3)) for the entry Cc1ccc2nc(/C(C#N)=C\c3ccc([N+](=O)[O-])o3)[nH]c2c1
Result string: 0.454 µM (active)

Query string: Find EC50 (Protein RecA (Mycobacterium tuberculosis, UniProt P9WHJ3)) for the entry CN(C)C(=O)c1ccc2c(c1[N+](=O)[O-])C(=O)c1ccccc1C2=O
Result string: 0.558 µM (active)

Query string: Find EC50 (Protein RecA (Mycobacterium tuberculosis, UniProt P9WHJ3)) for the entry Nc1ccc2[nH]cnc2c1
Result string: 23.6 µM (active)

Query string: Find EC50 (Protein RecA (Mycobacterium tuberculosis, UniProt P9WHJ3)) for the entry CC1CCCC(NC(=O)NC(=O)CCl)C1C (stereo unspecified)
Result string: 6.19 µM (active)

Query string: Find EC50 (Protein RecA (Mycobacterium tuberculosis, UniProt P9WHJ3)) for the entry CCOC(=O)CS(=O)(=O)c1nc(-c2ccc(F)cc2)cc(C(F)(F)F)n1
Result string: 3.3 µM (active)
